- assay-procedure: Stability of the compound in liver microsomes (human)
- Format: in vitro ADME
- test-conditions: T = 60 min; 1 μM compound, 0.5 mg protein/mL
metric: Human liver microsomes Residual (T = 60 min) (%)
Report the figure in % without appending any unit label.

Lookup result for COc1c([C@H]2[C@H](C(=O)Nc3ccc[n+]([O-])c3)N[C@@](C)(C(F)(F)F)[C@H]2C)ccc(F)c1F [Compound 7] ; measured Human liver microsomes Residual (T = 60 min): 74.8

Given item COc1c([C@H]2[C@H](C(=O)Nc3ccnc(C(N)=O)c3)O[C@@](C)(C(F)(F)F)[C@H]2C)ccc(F)c1F [VX-548, reference compound] , the value recorded as its Human liver microsomes Residual (T = 60 min) is 70.9

Record COc1c([C@H]2[C@H](C(=O)Nc3ccnc(C(N)=O)c3)N[C@@](C)(C(F)(F)F)[C@H]2C)ccc(F)c1F [Compound 1] . Reported Human liver microsomes Residual (T = 60 min): 58.4

Input COc1c([C@H]2[C@H](C(=O)Nc3cccc(S(N)(=O)=O)c3)N[C@@](C)(C(F)(F)F)[C@H]2C)ccc(F)c1F [Compound 8] . Output Human liver microsomes Residual (T = 60 min): 80.3

====

- assay-procedure: Stability of the compound in liver microsomes (mouse)
- Type: in vitro ADME, CD-1 mouse
- test-conditions: CD-1, mouse, liver microsomes; 1 μM compound, 0.5 mg protein/mL, 37° C.; read-out: Mouse liver microsomes T½
- Procedure: 2.1.1. working solution: 5 μL of test or control compound stock solution (10 mM DMSO solution) was diluted with 495 μL of acetonitrile (ACN) to obtain an intermediate stock solution (100 μM, 99% ACN). 2.2.2 Preparation procedure: An appropriate amount of NADPH powder was weighed and diluted with 10 mM MgCl2 buffer (working solution concentration: 10 mM; final reaction system concentration: 1 mM). […]
metric: half-life at 1 μM (h)
API: value field is a number in h; no unit string.

For this compound ( COc1c([C@H]2[C@H](C(=O)Nc3ccnc(C(N)=O)c3)O[C@@](C)(C(F)(F)F)[C@H]2C)ccc(F)c1F [VX-548, reference compound] ), measured half-life at 1 μM is 1.2

====

Assign IC50 to each entry below.
- system-under-test: CYP2D6 (Homo sapiens (Human))
- Sequence (P10635 whole entry): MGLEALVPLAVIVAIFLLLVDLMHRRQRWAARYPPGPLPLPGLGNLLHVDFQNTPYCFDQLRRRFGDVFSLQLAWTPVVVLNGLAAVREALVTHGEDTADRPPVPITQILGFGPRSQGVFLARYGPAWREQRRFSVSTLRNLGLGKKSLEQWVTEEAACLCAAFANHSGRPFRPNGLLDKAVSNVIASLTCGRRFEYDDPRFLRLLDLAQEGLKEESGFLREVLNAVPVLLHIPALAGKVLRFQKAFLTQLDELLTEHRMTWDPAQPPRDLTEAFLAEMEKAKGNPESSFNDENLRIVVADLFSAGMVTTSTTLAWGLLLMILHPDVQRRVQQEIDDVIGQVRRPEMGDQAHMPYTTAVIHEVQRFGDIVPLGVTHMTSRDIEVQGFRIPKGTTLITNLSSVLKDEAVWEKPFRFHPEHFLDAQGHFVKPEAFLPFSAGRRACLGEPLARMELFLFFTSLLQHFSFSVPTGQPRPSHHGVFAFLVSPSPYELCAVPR
- assay-procedure: Human liver microsomal CYP inhibition test, CYP2D6
- Format: in vitro ADME
- test-conditions: human liver microsomes 0.2 mg/mL; substrate Dextromethorphan
- Procedure: 3.1 Buffer solutions: (1) potassium phosphate 100 mM; (2) magnesium chloride, 33 mM; 3.2.3 Reservoir for compounds to be tested: Dissolving the compounds to be tested in DMSO to form a 10 mM DMSO solution. 3.4.1 Preparation of human liver microsomal working solution (1.27×) (final concentration: 0.2 mg/mL) […] 3.5.8 Centrifuging the sample at 4000 rpm for 20 minutes to precipitate the protein. […] The samples were analyzed by LC/MS/MS; […]

// IC50 value for COc1c([C@H]2[C@H](C(=O)Nc3ccc(F)c(C(=N)NO)c3)N[C@@](C)(C(F)(F)F)[C@H]2C)ccc(F)c1F.Cl [Compound 10, hydrochloride] : > 50 µM

Record summary for COc1c([C@H]2[C@H](C(=O)Nc3ccc[n+]([O-])c3)N[C@@](C)(C(F)(F)F)[C@H]2C)ccc(F)c1F [Compound 7] : reported IC50 = > 50 µM

GET /value?item= COc1c([C@H]2[C@H](C(=O)Nc3cccc(S(N)(=O)=O)c3)N[C@@](C)(C(F)(F)F)[C@H]2C)ccc(F)c1F [Compound 8] &field=IC50 returns 41.6 µM

In plain terms, COc1c([C@H]2[C@H](C(=O)Nc3ccnc(C(N)=O)c3)O[C@@](C)(C(F)(F)F)[C@H]2C)ccc(F)c1F [VX-548, reference compound] has a documented IC50 of > 50 µM
